tested on: Kuramochi cells labeled with mApple-H2B; experiment: IncuCyte Cell Proliferation Assay; assay type: cell-based; conditions: 72 h
Quick reference for IC50 among some compounds

Would you please look over these solved cases?
- compound: "CNC(=O)[C@@H](NC(=O)[C@@H]1CN(C(=O)c2cnn(Cc3ccccc3)c2)CC12CN(C(=O)[C@H]1CC1(C)C)C2)C1(OCC2CCCCC2)CC1"
  IC50: "0.5 to 5 µM"
- compound: "C[C@@H](OCC1CCCCC1)[C@H](NC(=O)[C@@H]1CN(C(=O)c2cnn(Cc3ccccc3)c2)CC12CN(C(=O)[C@H]1CC1(C)C)C2)C(=O)N1CCC(c2cnc[nH]2)CC1"
  IC50: "0.5 to 5 µM"
- compound: "CNC(=O)[C@@H](NC(=O)[C@@H]1CN(C(=O)c2cnn(Cc3ccc(F)cc3)c2)CC12CN(C(=O)[C@H]1CC1(C)C)C2)[C@@H](C)OCc1ccc(F)cc1 [I-136A]"
  IC50: "5 to 20 µM"
- compound: "C[C@@H](OCC1(C(F)(F)F)CC1)[C@H](NC(=O)[C@@H]1CN(C(=O)c2cncs2)CC12CN(C(=O)[C@H]1CC1(C)C)C2)C(=O)N1CCC(F)(F)CC1"
  IC50: "5 to 20 µM"
- compound: "CNC(=O)[C@@H](NC(=O)[C@@H]1CN(C(=O)c2cnc(Cl)s2)CC12CN(C(=O)[C@H]1CC1(C)C)C2)[C@@H](C)OCC1CCCCC1 [I-189A]"
  IC50: "5 to 20 µM"

Let's switch to this compound now.
Could you share what IC50 was measured for C[C@@H](OCC1CCCCC1)[C@@H](COC1CCNCC1)NC(=O)[C@@H]1CN(C(=O)c2cncs2)CC12CN(C(=O)[C@H]1CC1(C)C)C2 , tested on Kuramochi cells labeled with mApple-H2B?
0.5 to 5 µM

----------
test system: Kuramochi cells labeled with mApple-H2B; test: IncuCyte Cell Proliferation Assay; format: cell-based; conditions: 72 h
Below, each entry is listed alongside its reported IC50.

Example entries and their recorded answers appear below.
- molecule: "C[C@@H](OCC1CCCCC1)[C@H](NC(=O)[C@H]1CN(C(=O)c2cnn(Cc3ccccc3)c2)CC12CN(C(=O)[C@H]1CC1(C)C)C2)C(=O)N1CCOCC1 [I-152B]"
  assayed.target: "Kuramochi cells labeled with mApple-H2B"
  measured.result: "5 to 20 µM"
- molecule: "CNC(=O)[C@@H](NC(=O)[C@@H]1CN(C(=O)c2cnn(Cc3ccccc3)c2)CC12CN(C(=O)NC1CC1)C2)[C@@H](C)OCC1CCCCC1"
  assayed.target: "Kuramochi cells labeled with mApple-H2B"
  measured.result: "> 20 µM"
- molecule: "CNC(=O)[C@@H](NC(=O)[C@@H]1CN(C(=O)c2cncs2)CC12CN(C(=O)[C@H]1CC1(C)C)C2)[C@@H](C)OC1CC2CCC1CC2 (stereo partly drawn)"
  assayed.target: "Kuramochi cells labeled with mApple-H2B"
  measured.result: "0.5 to 5 µM"
- molecule: "CNC(=O)[C@@H](NC(=O)[C@@H]1CN(C(=O)c2cnn(Cc3ccccc3)c2)CC12CN(C(=O)C(C)(C)C)C2)[C@@H](C)OCC1CCCCC1 [I-174A]"
  assayed.target: "Kuramochi cells labeled with mApple-H2B"
  measured.result: "0.5 to 5 µM"
- molecule: "C[C@@H](OCC12CCC(CC1)OC2)[C@H](NC(=O)[C@@H]1CN(C(=O)c2cncs2)CC12CN(C(=O)[C@H]1CC1(C)C)C2)C(=O)N1CCC2(CC1)CC2"
  assayed.target: "Kuramochi cells labeled with mApple-H2B"
  measured.result: "0.5 to 5 µM"
- molecule: "CNC(=O)[C@@H](NC(=O)[C@@H]1CN(C(=O)c2sc(Cl)nc2Cl)CC12CN(C(=O)[C@H]1CC1(C)C)C2)[C@@H](C)OCC1CCCCC1 [I-232A]"
  assayed.target: "Kuramochi cells labeled with mApple-H2B"
  measured.result: "0.5 to 5 µM"

# input molecule: CNC(=O)[C@@H](NC(=O)[C@@H]1CN(C(=O)c2cnn(Cc3ccccc3)c2)CC12CN(C(=O)[C@H]1CC1(C)C)C2)[C@@H](C)OCC12CC(C(=O)OC)(C1)C2 ; wanted: its IC50
> 20 µM

If you can, please state the reported IC50 value of C[C@@H](OCC1CCCCC1)[C@H](NC(=O)[C@@H]1CN(C(=O)c2cnn(Cc3ccccc3)c2)CC12CN(C(=O)[C@H]1CC1(C)C)C2)C(=O)N1CCC(c2nnco2)CC1 .
≤ 0.5 µM

What IC50 value was documented for this molecule, C[C@@H](OCC1CCCCC1)[C@H](NC(=O)[C@@H]1CN(C(=O)c2cnn(Cc3ccccc3)c2)CC12CN(C(=O)[C@H]1CC1(C)C)C2)C(=O)N1CCCCC1 [I-194A] ?
≤ 0.5 µM

Fill blank: measured IC50 of the molecule CNC(=O)[C@@H](NC(=O)[C@@H]1CN(C(=O)c2cncs2)CC12CN(CC(C)(C)C)C2)[C@@H](C)OCC12CCC(CC1)OC2 is ____.
> 20 µM

Given COC[C@H]1CCCN(C(=O)[C@@H](NC(=O)[C@@H]2CN(C(=O)c3cncs3)CC23CN(C(=O)[C@H]2CC2(C)C)C3)[C@@H](C)OCc2ccccc2F)C1 , state its recorded IC50.
0.5 to 5 µM

GET /values?readout=IC50&item= C[C@@H](OCC1CCCCC1)[C@@H](COC1CCCNC1)NC(=O)[C@@H]1CN(C(=O)c2cncs2)CC12CN(C(=O)[C@H]1CC1(C)C)C2 (stereo partly drawn)
5 to 20 µM

----------
Catalogue of pIC50 readings, one per entry.
test system: Kuramochi cells labeled with mApple-H2B; assay: IncuCyte Cell Proliferation Assay; format: cell-based; conditions: 72 h
pIC50: −log10 of the molar value.

Record excerpt, results attached:
- compound: "Cc1ccc(CNC(=O)[C@@H]2CN(C(=O)c3cnn(Cc4ccccc4)c3)CC23CN(C(=O)[C@H]2CC2(C)C)C3)nc1"
  assayed.target: "Kuramochi cells labeled with mApple-H2B"
  pIC50: "< 4.70"
- compound: "Cc1nc(C)c(C(=O)N2C[C@@H](C(=O)NC(c3cccc(C4CCOCC4)n3)C(C)(C)O)C3(C2)CN(C(=O)[C@H]2CC2(C)C)C3)s1 (some centres unmarked)"
  assayed.target: "Kuramochi cells labeled with mApple-H2B"
  pIC50: "< 4.70"

Quick one: pIC50 of C[C@@H](OCC1CCCCC1)[C@H](NC(=O)[C@@H]1CN(C(=O)c2cnn(Cc3ccccc3)c2)CC12CN(C(=O)[C@H]1CC1(C)C)C2)C(=O)N1CCC(c2ncc[nH]2)CC1 ?
5.30 to 6.30

----------
# pIC50 values compiled below
system: Kuramochi cells labeled with mApple-H2B; experiment: IncuCyte Cell Proliferation Assay; format: cell-based; conditions: 72 h
pIC50: −log10 of the molar value.

Sample answers from the record:
- compound: "COC[C@H]1CCCN(C(=O)[C@@H](NC(=O)[C@@H]2CN(C(=O)c3cncs3)CC23CN(C(=O)[C@H]2CC2(C)C)C3)[C@@H](C)OCc2ccc(C(F)(F)F)cc2)C1"
  measured.result: "5.30 to 6.30"
- compound: "CNC(=O)[C@@H](NC(=O)[C@@H]1CN(C(=O)c2cnn(Cc3ccccc3)c2)CC12CN(C(=O)[C@H]1CC1(C)C)C2)[C@@H](C)OC[C@H]1CC[C@H](OC)CC1"
  measured.result: "< 4.70"

Kindly review the next compound as well.
Form field: reported pIC50 of C[C@@H](OCc1ccccc1)[C@H](NC(=O)[C@@H]1CN(C(=O)c2cnn(Cc3ccccc3)c2)CC12CN(C(=O)[C@H]1CC1(C)C)C2)C(N)=O [I-176A]
< 4.70

----------
tested on: Kuramochi cells labeled with mApple-H2B; test: IncuCyte Cell Proliferation Assay; assay type: cell-based; details: 72 h
experimental.readout: IC50

The following molecules have reported results that may help.
- molecule: "C[C@@H](OCC1CCOCC1)[C@H](NC(=O)[C@@H]1CN(C(=O)c2cncs2)CC12CN(C(=O)[C@H]1CC1(C)C)C2)C(=O)N1CCC(F)(F)CC1"
  IC50: "5 to 20 µM"
- molecule: "CNC(=O)[C@@H](NC(=O)[C@@H]1CN(C(=O)c2nncs2)CC12CN(C(=O)[C@H]1CC1(C)C)C2)[C@@H](C)OCC1CCCCC1"
  IC50: "5 to 20 µM"
- molecule: "CNC(=O)C(NC(=O)[C@@H]1CN(C(=O)c2cncs2)CC12CN(C(=O)[C@H]1CC1(C)C)C2)c1cccc(N2CC3(COC3)C2)n1 (stereo partly drawn)"
  IC50: "> 20 µM"

// fetch Kuramochi cells labeled with mApple-H2B IC50 for CNC(=O)[C@@H](NC(=O)[C@@H]1CN(C(=O)c2cncs2)CC12CN(C(=O)[C@H]1CC1(C)C)C2)C1(OCC2CCCCC2)CC1
0.5 to 5 µM

What reported IC50 corresponds to C[C@@H](OCC1CCCCC1)C(NC(=O)[C@@H]1CN(C(=O)c2cncs2)CC12CN(C(=O)[C@H]1CC1(C)C)C2)c1nnco1 (stereo in doubt) on Kuramochi cells labeled with mApple-H2B?
0.5 to 5 µM

Hi! What's the reported IC50 for CNC(=O)[C@@H](NC(=O)[C@@H]1CN(C(=O)c2cnc(C3CC3)s2)CC12CN(C(=O)[C@H]1CC1(C)C)C2)[C@@H](C)OCC1CCCCC1 [I-178A] on Kuramochi cells labeled with mApple-H2B?
5 to 20 µM
